- Assay system: KRAS G12D (Homo sapiens, UniProt P01116, G12D)
- Sequence (P01116 1-188 isoform P01116-2 G12D): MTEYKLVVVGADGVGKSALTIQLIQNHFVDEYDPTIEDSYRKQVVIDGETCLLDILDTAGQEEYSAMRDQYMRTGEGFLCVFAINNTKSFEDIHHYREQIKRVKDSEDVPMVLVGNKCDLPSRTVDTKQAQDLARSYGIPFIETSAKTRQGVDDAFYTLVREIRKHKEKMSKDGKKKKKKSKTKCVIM
- Protocol: GDP-GTP exchange assay (KRAS G12D);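 also: one dagger IC50 up to 100 nM and two daggers above 100 nM up to 1 μM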
- Assay type: biochemical
- Experimental setup: bodipy-GDP/GppNHp exchange with SOS1; 4 h pre-incubation, 2 h reaction
- Protocol: The inhibitor potency of the exemplified compounds was determined in a fluorescence based guanine nucleotide exchange assay, which measures the exchange of bodipy-GDP (fluorescently labeled GDP) for GppNHp (Non-hydrolyzable GTP analog) to generate the active state of KRAS in the presence of SOS1 (guanine nucleotide exchange factor). […] Fluorescence intensities were measured on a PheraStar plate reader instrument (BMG Labtech) with excitation at 485 nm and emission at 520 nm. […]
Parameter measured: G12D_exchange (KRAS_G12D exchange assay IC50)

{"Molecule": "Cc1nc2c(F)c(-c3cccc(Cl)c3Cl)c(CCC#N)cc2c2c1cc([C@H]1[C@H]3C[C@H](CN(c4cc(C(F)(F)F)ccn4)C3)N1C(=O)C1CC1)n2[C@H]1[C@H]2CN[C@@H]1C2 (atropisomer, axis not shown; (Ra)) [Example 39]", "Result": "†"}
{"Molecule": "Cc1nc2c(F)c(-c3cccc(Cl)c3Cl)c(CCC#N)cc2c2c1cc([C@H]1[C@@H]3COC(=O)[C@@H](C3)N1C(=O)C1CC1)n2[C@H]1[C@H]2CN[C@@H]1C2 (atropisomer, axis not shown; (Ra)) [Example 116]", "Result": "†"}
{"Molecule": "Cc1nc2c(F)c(-c3cccc(Cl)c3Cl)c(CCC#N)cc2c2c1cc([C@H]1[C@H]3C[C@H](CN(c4nccc(C(F)(F)F)c4F)C3)N1C(=O)C1CC1)n2[C@H]1[C@H]2CN[C@@H]1C2 (atropisomer, axis not shown; (Ra)) [Example 50]", "Result": "††"}
{"Molecule": "Cc1nc2c(F)c(-c3cccc(Cl)c3Cl)c(CCC#N)cc2c2c1cc([C@H]1[C@H]3C[C@H](CN(c4ncc(C5CC5)s4)C3)N1C(=O)C1CC1)n2[C@H]1[C@H]2CN[C@@H]1C2 (atropisomer, axis not shown; (Ra)) [Example 106]", "Result": "†"}

====

- Assay system: KRAS G12V (Homo sapiens, UniProt P01116, G12V)
- Sequence (P01116 1-188 isoform P01116-2 G12V): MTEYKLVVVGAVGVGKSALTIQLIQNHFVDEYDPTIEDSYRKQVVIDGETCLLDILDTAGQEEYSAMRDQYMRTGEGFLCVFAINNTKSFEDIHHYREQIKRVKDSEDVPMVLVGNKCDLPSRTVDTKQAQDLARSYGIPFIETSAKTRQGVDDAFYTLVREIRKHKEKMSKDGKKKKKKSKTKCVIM
- Protocol: GDP-GTP exchange assay (KRAS G12V);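 also: one dagger IC50 up to 100 nM and two daggers above 100 nM up to 1 μM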
- Format: biochemical
- Experimental setup: bodipy-GDP/GppNHp exchange with SOS1; 3 h incubation after GppNHp-SOS1
Parameter measured: G12V_exchange (KRAS_G12V exchange assay IC50)

Examples with answers:
{"Compound": "COC(=O)N1[C@@H]2C[C@@H](CN(c3ncc(OCC4CC4)cn3)C2)[C@@H]1c1cc2c(C)nc3c(F)c(-c4cccc(Cl)c4Cl)c(CCC#N)cc3c2n1[C@H]1[C@H]2CN[C@@H]1C2 (atropisomer, axis not shown; (Ra))", "Result": "†"}
{"Compound": "CCc1cnc(N2C[C@@H]3C[C@H](C2)N(C(=O)C2CC2)[C@H]3c2cc3c(C)nc4c(F)c(-c5cccc(Cl)c5Cl)c(CCC#N)cc4c3n2[C@H]2[C@H]3CN[C@@H]2C3)s1 (atropisomer, axis not shown; (Ra))", "Result": "†"}
{"Compound": "Cc1nc2c(F)c(-c3cccc(Cl)c3Cl)c(CCC#N)cc2c2c1cc([C@H]1[C@H]3C[C@H](CN(c4cnn(C)c(=O)c4)C3)N1C(=O)C1CC1)n2[C@H]1[C@H]2CN[C@@H]1C2 (atropisomer, axis not shown; (Ra))", "Result": "†"}
{"Compound": "Cc1nc2c(F)c(-c3cccc(Cl)c3Cl)c(CCC#N)cc2c2c1cc([C@H]1[C@H]3C[C@H](CN(c4ccc(C(F)F)nc4)C3)N1C(=O)C1CC1)n2[C@H]1[C@H]2CN[C@@H]1C2 (atropisomer, axis not shown; (Ra))", "Result": "†"}
{"Compound": "COC(=O)N1[C@@H]2C[C@@H](CN(c3nccnc3OC)C2)[C@@H]1c1cc2c(C)nc3c(F)c(-c4cccc(Cl)c4Cl)c(CCC#N)cc3c2n1[C@H]1[C@H]2CN[C@@H]1C2 (atropisomer, axis not shown; (Ra))", "Result": "†"}
{"Compound": "Cc1nc2c(F)c(-c3cccc(Cl)c3Cl)c(CCC#N)cc2c2c1cc([C@H]1[C@H]3C[C@H](CN(c4cc(C(C)(F)F)ncn4)C3)N1C(=O)CO)n2[C@H]1[C@H]2CN[C@@H]1C2 (atropisomer, axis not shown; (Ra))", "Result": "†"}

What value of G12V_exchange (KRAS_G12V exchange assay IC50) has been recorded for this entry: Cc1nc2c(F)c(-c3cccc(Cl)c3Cl)c(CCC#N)cc2c2c1cc([C@H]1[C@H]3C[C@H](CN(c4cnn(C(F)F)c4)C3)N1C(=O)C1CC1)n2[C@H]1[C@H]2CN[C@@H]1C2 (atropisomer, axis not shown; (Ra))
†

Quick one: G12V_exchange (KRAS_G12V exchange assay IC50) for Cc1nc2c(F)c(-c3cccc(Cl)c3Cl)c(CCC#N)cc2c2c1cc([C@H]1[C@H]3C[C@H](CN(c4ccccn4)C3)N1C(=O)C1CC1)n2[C@H]1[C@H]2CN[C@@H]1C2 (atropisomer, axis not shown; (Ra)) ?
†

====

- Assay system: KRAS G12V (Homo sapiens, UniProt P01116, G12V)
- Protocol: GDP-GTP exchange assay (KRAS G12V);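 also: one dagger IC50 up to 100 nM and two daggers above 100 nM up to 1 μM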
- Format: biochemical
- Experimental setup: bodipy-GDP/GppNHp exchange with SOS1; 3 h incubation after GppNHp-SOS1
Parameter measured: G12V_exchange (KRAS_G12V exchange assay IC50)

{"Compound": "COC(=O)N1C[C@@H]2C[C@H](C1)N(C(=O)C1CC1)[C@H]2c1cc2c(C)nc3c(F)c(-c4cccc(Cl)c4Cl)c(CCC#N)cc3c2n1[C@H]1[C@H]2CN[C@@H]1C2 (atropisomer, axis not shown; (Ra)) [Example 108]", "Result": "†"}
{"Compound": "CCOc1cc(N2C[C@@H]3C[C@H](C2)N(C(=O)C2CC2)[C@H]3c2cc3c(C)nc4c(F)c(-c5cccc(Cl)c5Cl)c(CCC#N)cc4c3n2[C@H]2[C@H]3CN[C@@H]2C3)ccn1 (atropisomer, axis not shown; (Ra)) [Example 81]", "Result": "†"}
{"Compound": "COc1ccnc(N2C[C@@H]3C[C@H](C2)N(C(=O)C2CC2)[C@H]3c2cc3c(C)nc4c(F)c(-c5cccc(Cl)c5Cl)c(CCC#N)cc4c3n2[C@H]2[C@H]3CN[C@@H]2C3)n1 (atropisomer, axis not shown; (Ra)) [Example 42]", "Result": "†"}
{"Compound": "Cc1nc2c(F)c(-c3cccc(Cl)c3Cl)c(CCC#N)cc2c2c1cc([C@H]1[C@H]3C[C@H](CN(c4cnn(C)c4)C3)N1C(=O)C1CC1)n2[C@H]1[C@H]2CN[C@@H]1C2 (atropisomer, axis not shown; (Ra)) [Example 11]", "Result": "†"}

====

- Assay system: KRAS G12V (Homo sapiens, UniProt P01116, G12V)
- Protocol: GDP-GTP exchange assay (KRAS G12V);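 also: one dagger IC50 up to 100 nM and two daggers above 100 nM up to 1 μM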
- Format: biochemical
- Experimental setup: bodipy-GDP/GppNHp exchange with SOS1; 3 h incubation after GppNHp-SOS1
Parameter measured: G12V_exchange (KRAS_G12V exchange assay IC50)

{"Compound": "Cc1nc2c(F)c(-c3cccc(Cl)c3Cl)c(CCC#N)cc2c2c1cc([C@H]1[C@H]3C[C@H](CN(c4ncc(C(F)(F)F)cn4)C3)N1C(=O)C1CC1)n2[C@H]1[C@H]2CN[C@@H]1C2 (atropisomer, axis not shown; (Ra))", "Assay system": "KRAS G12V (Homo sapiens, UniProt P01116, G12V)", "Result": "†"}
{"Compound": "Cc1nc2c(F)c(-c3cccc(Cl)c3Cl)c(CCC#N)cc2c2c1cc([C@H]1[C@H]3C[C@H](CN(c4cccc(=O)n4C)C3)N1C(=O)C1CC1)n2[C@H]1[C@H]2CN[C@@H]1C2 (atropisomer, axis not shown; (Ra))", "Assay system": "KRAS G12V (Homo sapiens, UniProt P01116, G12V)", "Result": "†"}

====

Measured Papp A→B at 120 min, 50 μM accompanies every entry in the list below.
- Protocol: Caco2 assay (permeability, Papp A-B)
- Type: in vitro ADME
- Experimental setup: human, Caco-2, absorptive direction (A-B), 50 μM test compound, 4% BSA in receiver

{"Molecule": "Cc1nc2c(F)c(-c3cccc(Cl)c3Cl)c(CCC#N)cc2c2c1cc([C@H]1CCN(c3ccccc3)CCN1C(=O)C1CC1)n2[C@H]1[C@H]2CN[C@@H]1C2 (atropisomer, axis not shown; (Ra)) [Example 117]", "Papp A→B at 120 min, 50 μM": "> 1 ×10⁻⁶ cm/s"}
{"Molecule": "Cc1nc2c(F)c(-c3cccc(Cl)c3Cl)c(CCC#N)cc2c2c1cc([C@H]1[C@H]3C[C@H](CN(c4ccn5ccnc5c4)C3)N1C(=O)C1CC1)n2[C@H]1[C@H]2CN[C@@H]1C2 (atropisomer, axis not shown; (Ra)) [Example 61]", "Papp A→B at 120 min, 50 μM": "≤ 0.5 ×10⁻⁶ cm/s"}
{"Molecule": "Cc1nc2c(F)c(-c3cccc(Cl)c3Cl)c(CCC#N)cc2c2c1cc([C@H]1[C@H]3C[C@H](CN(c4ccc(C(F)F)nc4)C3)N1C(=O)C1CC1)n2[C@H]1[C@H]2CN[C@@H]1C2 (atropisomer, axis not shown; (Ra)) [Example 22]", "Papp A→B at 120 min, 50 μM": "≤ 0.5 ×10⁻⁶ cm/s"}

I am curious: what Papp A→B at 120 min, 50 μM value has been reported for Cc1nc2c(F)c(-c3cccc(Cl)c3Cl)c(CCC#N)cc2c2c1cc([C@H]1[C@H]3C[C@H](CN(c4ncnn4C)C3)N1C(=O)C1CC1)n2[C@H]1[C@H]2CN[C@@H]1C2 (atropisomer, axis not shown; (Ra)) [Example 92] ?
≤ 0.5 ×10⁻⁶ cm/s
